# assay: ATG_AP_1_CIS: Attagene CIS-FACTORIAL HepG2 Assay for human Activator Protein 1 (AP-1) (AID 2282931)
# experimental.context: HepG2 Attagene cis-factorial AP-1 reporter mRNA; actives raise or lower the signal
The source made the active and inactive calls. How the source made its calls: active means hit-call score of the fitted dose curve at least 0.9, where 1 is the maximum; inactive means score below 0.9.
// allowed return values: active, inactive

Returns: the outcome recorded for `Cc1ccc2sc3cccc(C)c3c2c1` in this assay.
inactive

Entry `CSc1nc(NC2CC2)nc(NC(C)(C)C)n1` : call = ?
active

So what was the verdict on `Cc1ccc2ccccc2n1` in this test?
inactive

Which outcome was assigned to `O=Nc1ccc(Nc2ccccc2)cc1` in this test?
inactive

Which outcome was assigned to `CC(C)(C)C(=O)c1ccccc1` in this test?
inactive

What outcome does the record of this test show for `Cc1ccc(Nc2ccc(O)c3c2C(=O)c2ccccc2C3=O)cc1` ?
inactive

Field: outcome | Entry: `O=S(=O)(O)c1ccc(O)c2ncccc12`
inactive

Lab log entry: `O=C(O)CN(CCN(CC(=O)O)CC(=O)O)CCN(CC(=O)O)CC(=O)O` — outcome as called in the assay?
inactive

What call does the record list for `NCCCN1CCOCC1` ?
inactive

Call for entry `CC(=O)O[C@H](CC(=O)[O-])C[N+](C)(C)C` :
inactive

Give the logged outcome of this assay for the following compound: `CCCCCNCCCCC`
inactive

Recorded call for `O=C[C@@H](O)[C@H](O)[C@H](O)CO` ?
inactive

Status in this test for `CCn1c2ccccc2c2cc(N)ccc21` ?
inactive

Recorded test outcome, item CCCCCCCCCCCCCCCCCC(=O)OCC(CC)CCCC (centres undefined)
inactive

Hi team, can someone confirm the assay call for `O=C(O)CCCCCCCCCCC(=O)O` ?
inactive

Each compound tested received a call. Report the one for `C=CC(=O)OCCn1c(=O)n(CCOC(=O)C=C)c(=O)n(CCOC(=O)C=C)c1=O` .
active

What call does the record list for `CC(=O)c1c(C)cc(C(C)(C)C)cc1C` ?
inactive

Called result for `CC(C)(C)c1cc(CCC(=O)NN)cc(C(C)(C)C)c1O`
inactive

What is the recorded call for this compound in the test? CC(CCO)CCc1ccccc1 (centres undefined)
inactive

I'd appreciate the recorded outcome for `O=C(O)Cc1cccc2ccccc12` from this test.
inactive

Each compound tested received a call. Report the one for CN(CCOc1ccc(CC2SC(=O)NC2=O)cc1)c1ccccn1 (centres undefined) .
inactive

Answer briefly: the call reported for `CN(C)CCCN` in this assay.
inactive

// param item: `CCCCCCCCCCCCN(CCCCCCCCCCCC)CCCCCCCCCCCC` ; yields the recorded call
inactive

I would be grateful if you could indicate the recorded call for `COc1cc(C=O)ccc1OC(=O)C(C)C` .
inactive

Outcome logged for c1cc(C(c2ccc(OCC3CO3)cc2)c2ccc(OCC3CO3)cc2)ccc1OCC1CO1 (centres undefined) in this assay:
active

Could you kindly confirm the outcome this assay logged for `O=C(O)c1ccc(C(=O)O)cc1` ?
inactive

Answer briefly: the call reported for CC(CC(C)(C)C)CC(C)(C)CC(C)(C)C (centres undefined) in this assay.
inactive

Tell me the recorded outcome of this test for `CCOC(=O)c1ccccc1OC` .
inactive

Recorded call for CC(CN1c2ccccc2Sc2ccccc21)N(C)C (centres undefined) ?
inactive

---

# assay: ATG_PXRE_CIS: Attagene CIS-FACTORIAL HepG2 Assay for human Pregnane X Receptor Element (PXRE) (AID 2282957)
# experimental.context: HepG2 Attagene CIS-FACTORIAL PXRE reporter, mRNA; actives raise or lower the signal
Active and inactive are the calls of the source. Rule for the calls: active = hit-call score of the fitted dose curve at least 0.9, where 1 is the maximum; inactive = score below 0.9.
Would you mind answering with one of these outcomes? active, inactive

Status in this test for `CCCCO` ?
inactive

How did this test come out for `CC1(C)CCC(C)(C)c2cc(C(=O)Nc3ccc(C(=O)O)cc3)ccc21` ?
active

What call does the record list for `O=Nc1ccc(Nc2ccccc2)cc1` ?
active

Hello, I am checking results. What call was entered for `O=C(Oc1ccccc1)c1ccc(O)cc1` ?
inactive

Name the outcome recorded for `CC(=O)[C@H]1CC[C@H]2[C@@H]3CC=C4C[C@@H](O)CC[C@]4(C)[C@H]3CC[C@]12C` in the assay.
active

Could you please tell me the result logged for `CCCC(=O)c1cc(O)c(O)cc1O` in this assay?
inactive

Please indicate how the test categorized `CO[Si](CCCn1c(=O)n(CCC[Si](OC)(OC)OC)c(=O)n(CCC[Si](OC)(OC)OC)c1=O)(OC)OC` .
active

# fetch the recorded call for `C=C[C@@H](C)CCC=C(C)C` here
inactive

Please let me know the test result on file for `Nc1cc([N+](=O)[O-])ccc1O` .
inactive

Check the results log: what was the call for `Sc1nc(S)nc(S)n1` ?
inactive

Hi, do you know how CCCC1CCC(=O)O1 (centres undefined) came out in this test?
inactive

Dear colleague, could you share the recorded outcome for `O=C[C@@H](O)[C@H](O)[C@H](O)CO` when you have a moment?
inactive

Hello, I am checking results. What call was entered for COC(C)CCO (centres undefined) ?
active

Outcome logged for `CSc1nnc(C(C)(C)C)c(=O)[nH]1` in this assay:
inactive

Hey, what did the test say about BrC1CCC(Br)C(Br)CCC(Br)C(Br)CCC1Br (centres undefined) ?
active

Please let me know the test result on file for `OCCN1CCNCC1` .
inactive

For `O=C1c2ccccc2C(=O)N1SC1CCCCC1` , what call appears in the results of this test?
active

For this compound, state the assay outcome: `CC1(C)OC[C@@H]2O[C@@]3(C(=O)O)OC(C)(C)O[C@H]3[C@@H]2O1`
inactive

Any idea what this test logged for `CC(C)(Oc1ccc(CCNC(=O)c2ccc(Cl)cc2)cc1)C(=O)O` ?
active

Hi, sorry to bother you, what did the test record for COc1ccnc(CS(=O)c2nc3cc(OC(F)F)ccc3[nH]2)c1OC (centres undefined) ?
active

Please let me know the test result on file for `O=C1CCc2ccccc2O1` .
inactive

For this compound, state the assay outcome: `CCc1c(C)cc(N)c(CC)c1N`
active

Field: outcome | Entry: `CCCC(=O)C(C)=O`
active

What classification did `CCCC/C=C\CCCCCCCCCC=O` end up with in this test?
inactive

Test call, this compound: `CCOC(=S)SSC(=S)OCC`
inactive

// return assay outcome for `C[C@H]1C[C@H]2[C@@H]3CCC4=CC(=O)C=C[C@]4(C)[C@@]3(F)[C@@H](O)C[C@]2(C)[C@@]1(O)C(=O)COP(=O)(O)O`
inactive

State the result this test recorded for COC(C(=O)O)c1ccccc1 (centres undefined) .
inactive

Tell me the recorded outcome of this test for `CCCCCCCCC` .
inactive

Look up the recorded call for `c1ccc2sc(SN(C3CCCCC3)C3CCCCC3)nc2c1` in this test.
active

What was the test verdict on `CCCCCCCCCCCCOCCO` ?
inactive

In this assay, the call recorded for `CC1(C)[C@@H]2CC[C@@]1(C)[C@H](O)C2` was what?
inactive

Assay result, entry `O=C(COc1ccc(Cl)cc1)N1CCN(Cc2ccc3c(c2)OCO3)CC1` — outcome?
active

Test call for this compound, please: `CC(=O)c1c(C)cc(C(C)(C)C)cc1C`
active

Test call for this compound, please: `Cc1ccc(C(C)C)cc1O`
active

Field: outcome | Entry: COCCCOc1ccnc(CS(=O)c2nc3ccccc3[nH]2)c1C (centres undefined)
active

Look up the recorded call for `Cc1ccc2sc3cccc(C)c3c2c1` in this test.
inactive

Which outcome was entered for the compound CN1Cc2c(N)cccc2C(c2ccccc2)C1 (centres undefined) in this test?
active

So what was the verdict on `Nc1ccc(F)c([N+](=O)[O-])c1` in this test?
inactive

Assay result, entry CC1CCC(C(C)(C)O)CC1 (centres undefined) — outcome?
inactive
